test system: Huntingtin protein (HTT); assay: Endogenous Huntingtin Protein Assay (MSD electrochemiluminescence); type: cell-based; settings: Table 1, Endogenous Huntingtin Protein Assay; read-out: IC50
parameter.measured: IC50

[in] Param readout = IC50; param system = Huntingtin protein (HTT); param query = CN1CCC(n2ccc3cc(-c4ccc(-n5ccnn5)cc4O)nnc32)CC12CC2 (stereo not drawn) ; response: value
[out] < 100 nM

[in] Okay, and `CC1(C)C[C@H](n2ccc3cc(-c4cc(F)c(-n5ccnn5)cc4O)nnc32)[C@H](F)C(C)(C)N1` ?
[out] < 100 nM

[in] Can you check `Cc1cnnn1-c1ccc(-c2cc3ccn([C@H]4CCNC5(CC5)C4)c3nn2)c(O)c1` next?
[out] 500 to 1000 nM

[in] Now try CC1(C)CC(n2ccc3cc(-c4ccc(-n5ccnn5)cc4O)nnc32)CCN1 (racemic) .
[out] < 100 nM

[in] Repeat with `CC1(C)CC(n2ccc3cc(-c4ccc(-n5ccnn5)cc4O)nnc32)CC(C)(C)N1`
[out] < 100 nM

[in] Next up: `CC1(C)C[C@H](n2ccc3cc(-c4ccc(-n5ccnn5)cc4O)nnc32)[C@H](F)CN1`
[out] < 100 nM

[in] Here is the next compound: `CC1(C)C[C@H](n2ccc3cc(-c4c(O)cc(-n5ccnn5)cc4F)nnc32)[C@H](F)C(C)(C)N1`
[out] < 100 nM

[in] Repeat for the following compound: `Oc1cc(-n2ccnn2)ccc1-c1cc2ccn([C@H]3CCNC4(CC4)C3)c2nn1`
[out] < 100 nM

[in] Cool, now `CC1(C)C[C@H](n2ccc3cc(-c4ccc(-n5ccnn5)cc4O)nnc32)[C@H](F)C(C)(C)N1`
[out] < 100 nM

[in] Same thing, different compound: `Oc1cc(-n2ccnn2)ccc1-c1cc2ccn([C@@H]3CCNC4(CC4)C3)c2nn1`
[out] < 100 nM
